Hey, just so you know, these numbers are from ChEMBL document CHEMBL4507326.

- assay-target: Serine/threonine-protein kinase B-raf (Homo sapiens, UniProt P15056)
- Sequence (P15056 whole entry): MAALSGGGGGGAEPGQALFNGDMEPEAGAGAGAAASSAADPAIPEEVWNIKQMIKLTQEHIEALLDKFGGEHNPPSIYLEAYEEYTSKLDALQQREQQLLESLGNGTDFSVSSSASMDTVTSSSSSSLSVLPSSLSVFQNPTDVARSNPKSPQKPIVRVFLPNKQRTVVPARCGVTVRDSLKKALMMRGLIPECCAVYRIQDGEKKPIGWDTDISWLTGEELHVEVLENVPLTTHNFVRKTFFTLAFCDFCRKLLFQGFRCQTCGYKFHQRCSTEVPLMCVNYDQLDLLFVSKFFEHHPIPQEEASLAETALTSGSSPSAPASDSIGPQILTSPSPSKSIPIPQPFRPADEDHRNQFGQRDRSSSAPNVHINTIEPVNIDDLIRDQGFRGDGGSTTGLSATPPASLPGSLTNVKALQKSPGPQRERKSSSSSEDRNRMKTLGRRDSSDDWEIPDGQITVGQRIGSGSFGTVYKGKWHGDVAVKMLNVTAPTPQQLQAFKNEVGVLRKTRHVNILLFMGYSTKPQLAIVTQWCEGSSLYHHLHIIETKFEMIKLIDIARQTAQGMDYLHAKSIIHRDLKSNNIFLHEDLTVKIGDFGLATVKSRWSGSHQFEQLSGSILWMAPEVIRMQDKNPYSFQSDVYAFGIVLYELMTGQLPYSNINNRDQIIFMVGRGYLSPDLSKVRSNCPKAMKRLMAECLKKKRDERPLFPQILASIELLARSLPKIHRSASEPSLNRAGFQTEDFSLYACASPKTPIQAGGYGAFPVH

mol: CN1C(=O)[C@@H](N2CCc3c(nn(Cc4ccccc4)c3Br)C2=O)COc2ccccc21
IC50 (nM): 1000

---

- assay-target: Protein kinase C beta type (Homo sapiens, UniProt P05771)
- Sequence (P05771 whole entry): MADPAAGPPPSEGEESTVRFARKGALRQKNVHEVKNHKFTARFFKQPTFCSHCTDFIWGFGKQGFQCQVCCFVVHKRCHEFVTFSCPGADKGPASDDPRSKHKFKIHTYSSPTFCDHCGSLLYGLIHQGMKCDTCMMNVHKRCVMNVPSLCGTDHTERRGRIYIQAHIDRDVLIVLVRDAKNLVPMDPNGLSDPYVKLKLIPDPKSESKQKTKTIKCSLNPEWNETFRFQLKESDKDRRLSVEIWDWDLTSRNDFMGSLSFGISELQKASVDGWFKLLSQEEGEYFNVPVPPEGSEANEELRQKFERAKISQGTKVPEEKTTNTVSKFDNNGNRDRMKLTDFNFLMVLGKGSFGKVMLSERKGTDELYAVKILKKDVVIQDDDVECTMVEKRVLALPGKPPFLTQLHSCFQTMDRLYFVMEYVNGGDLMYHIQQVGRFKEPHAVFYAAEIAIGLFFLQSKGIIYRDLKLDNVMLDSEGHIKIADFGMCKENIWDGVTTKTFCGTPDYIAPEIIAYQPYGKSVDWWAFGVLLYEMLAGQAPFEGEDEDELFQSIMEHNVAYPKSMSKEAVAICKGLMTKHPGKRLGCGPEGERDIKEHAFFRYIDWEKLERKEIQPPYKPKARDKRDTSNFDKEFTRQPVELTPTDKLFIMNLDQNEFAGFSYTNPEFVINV
pIC50: −log10 of the molar value.
assay-metric: pIC50

mol: CN1C(=O)[C@@H](N2CCc3c(nn(Cc4ccccc4)c3Br)C2=O)COc2ccccc21
assay-metric: pIC50
result-number: 6.00

---

- assay-target: Receptor-interacting serine/threonine-protein kinase 1 (Homo sapiens, UniProt Q13546)
- Sequence (Q13546 whole entry): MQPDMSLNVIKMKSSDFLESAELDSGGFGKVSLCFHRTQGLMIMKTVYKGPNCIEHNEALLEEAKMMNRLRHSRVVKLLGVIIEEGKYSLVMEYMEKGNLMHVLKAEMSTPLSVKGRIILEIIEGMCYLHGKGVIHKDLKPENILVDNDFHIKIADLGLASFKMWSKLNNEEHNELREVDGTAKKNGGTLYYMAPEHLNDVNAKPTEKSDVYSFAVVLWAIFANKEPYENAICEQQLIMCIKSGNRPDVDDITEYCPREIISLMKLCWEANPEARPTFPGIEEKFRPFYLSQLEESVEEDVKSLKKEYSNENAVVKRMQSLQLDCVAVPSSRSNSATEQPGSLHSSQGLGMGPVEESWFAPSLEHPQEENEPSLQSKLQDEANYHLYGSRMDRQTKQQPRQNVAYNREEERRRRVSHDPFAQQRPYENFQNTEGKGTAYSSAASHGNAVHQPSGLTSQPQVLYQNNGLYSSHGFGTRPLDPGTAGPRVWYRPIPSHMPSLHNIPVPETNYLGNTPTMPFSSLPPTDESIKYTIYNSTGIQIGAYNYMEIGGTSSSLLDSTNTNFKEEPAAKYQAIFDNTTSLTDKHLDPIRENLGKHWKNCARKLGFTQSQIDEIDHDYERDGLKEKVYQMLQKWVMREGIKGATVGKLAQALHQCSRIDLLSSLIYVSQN
assay-metric: IC50

compound: CN1C(=O)[C@@H](N2CCc3c(nn(Cc4ccccc4)c3Br)C2=O)COc2ccccc21 [TP-030-2]
assay-metric: IC50
result: 10 nM

---

- assay-target: Tyrosine-protein kinase ABL2 (Homo sapiens, UniProt P42684)
- Sequence (P42684 whole entry): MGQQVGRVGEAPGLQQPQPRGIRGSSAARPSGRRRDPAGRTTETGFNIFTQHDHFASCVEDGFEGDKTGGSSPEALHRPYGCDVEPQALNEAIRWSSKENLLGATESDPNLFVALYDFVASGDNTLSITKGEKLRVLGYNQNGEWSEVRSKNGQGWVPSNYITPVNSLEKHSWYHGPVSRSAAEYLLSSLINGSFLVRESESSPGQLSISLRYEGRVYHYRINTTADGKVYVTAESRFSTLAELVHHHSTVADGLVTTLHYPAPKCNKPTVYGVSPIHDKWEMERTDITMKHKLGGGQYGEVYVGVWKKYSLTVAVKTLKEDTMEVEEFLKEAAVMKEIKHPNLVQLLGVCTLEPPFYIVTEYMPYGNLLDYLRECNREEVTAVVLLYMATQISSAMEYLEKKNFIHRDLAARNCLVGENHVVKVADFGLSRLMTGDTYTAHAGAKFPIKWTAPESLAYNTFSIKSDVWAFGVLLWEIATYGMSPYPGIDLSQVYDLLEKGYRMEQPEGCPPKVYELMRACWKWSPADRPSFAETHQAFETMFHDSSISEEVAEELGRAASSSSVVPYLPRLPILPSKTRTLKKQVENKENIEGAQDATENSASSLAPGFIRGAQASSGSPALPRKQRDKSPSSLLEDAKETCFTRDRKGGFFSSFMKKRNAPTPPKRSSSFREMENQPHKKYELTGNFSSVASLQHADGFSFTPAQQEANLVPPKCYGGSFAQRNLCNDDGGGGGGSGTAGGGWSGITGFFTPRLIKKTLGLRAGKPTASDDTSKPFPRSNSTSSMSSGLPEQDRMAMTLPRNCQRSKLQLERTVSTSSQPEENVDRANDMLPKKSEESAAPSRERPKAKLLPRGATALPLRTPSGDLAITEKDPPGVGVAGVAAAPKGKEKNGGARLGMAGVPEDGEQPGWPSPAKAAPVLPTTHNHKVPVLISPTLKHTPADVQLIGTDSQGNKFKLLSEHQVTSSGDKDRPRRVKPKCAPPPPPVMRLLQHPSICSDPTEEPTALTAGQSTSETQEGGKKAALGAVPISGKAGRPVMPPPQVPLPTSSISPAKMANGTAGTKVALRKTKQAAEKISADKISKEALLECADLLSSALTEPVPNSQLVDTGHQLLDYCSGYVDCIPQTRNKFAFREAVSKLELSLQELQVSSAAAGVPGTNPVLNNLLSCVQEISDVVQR

mol: CN1C(=O)[C@@H](N2CCc3c(nn(Cc4ccccc4)c3Br)C2=O)COc2ccccc21
assay-target: Tyrosine-protein kinase ABL2 (Homo sapiens, UniProt P42684)
quantity-unit: nM
IC50: 1000

---

- assay-target: Microtubule-associated serine/threonine-protein kinase 4 (Homo sapiens)
pIC50: −log10 of the molar value.

mol: CN1C(=O)[C@@H](N2CCc3c(nn(Cc4ccccc4)c3Br)C2=O)COc2ccccc21
pIC50: 6.00

---

- assay-target: Serine/threonine-protein kinase PLK1 (Homo sapiens)
- Sequence (P53350 whole entry): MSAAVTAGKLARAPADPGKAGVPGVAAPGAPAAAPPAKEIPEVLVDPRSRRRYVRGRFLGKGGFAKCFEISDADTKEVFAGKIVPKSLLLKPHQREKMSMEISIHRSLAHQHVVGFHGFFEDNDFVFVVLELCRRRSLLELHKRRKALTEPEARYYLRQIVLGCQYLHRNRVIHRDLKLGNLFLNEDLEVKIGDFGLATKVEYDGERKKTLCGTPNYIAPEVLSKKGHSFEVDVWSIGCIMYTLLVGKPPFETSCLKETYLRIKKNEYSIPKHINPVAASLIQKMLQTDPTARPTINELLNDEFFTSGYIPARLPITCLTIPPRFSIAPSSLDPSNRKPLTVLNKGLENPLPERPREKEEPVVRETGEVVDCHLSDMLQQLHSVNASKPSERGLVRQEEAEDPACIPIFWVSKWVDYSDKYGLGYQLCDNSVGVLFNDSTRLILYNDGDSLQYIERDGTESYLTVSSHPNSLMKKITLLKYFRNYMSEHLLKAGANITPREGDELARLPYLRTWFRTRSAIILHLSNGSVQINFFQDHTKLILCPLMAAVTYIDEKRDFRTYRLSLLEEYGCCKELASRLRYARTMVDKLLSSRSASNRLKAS

mol: CN1C(=O)[C@@H](N2CCc3c(nn(Cc4ccccc4)c3Br)C2=O)COc2ccccc21
quantity-unit: nM
IC50: 1000

---

- assay-target: Mitogen-activated protein kinase kinase kinase 11 (Homo sapiens, UniProt Q16584)
- Sequence (Q16584 whole entry): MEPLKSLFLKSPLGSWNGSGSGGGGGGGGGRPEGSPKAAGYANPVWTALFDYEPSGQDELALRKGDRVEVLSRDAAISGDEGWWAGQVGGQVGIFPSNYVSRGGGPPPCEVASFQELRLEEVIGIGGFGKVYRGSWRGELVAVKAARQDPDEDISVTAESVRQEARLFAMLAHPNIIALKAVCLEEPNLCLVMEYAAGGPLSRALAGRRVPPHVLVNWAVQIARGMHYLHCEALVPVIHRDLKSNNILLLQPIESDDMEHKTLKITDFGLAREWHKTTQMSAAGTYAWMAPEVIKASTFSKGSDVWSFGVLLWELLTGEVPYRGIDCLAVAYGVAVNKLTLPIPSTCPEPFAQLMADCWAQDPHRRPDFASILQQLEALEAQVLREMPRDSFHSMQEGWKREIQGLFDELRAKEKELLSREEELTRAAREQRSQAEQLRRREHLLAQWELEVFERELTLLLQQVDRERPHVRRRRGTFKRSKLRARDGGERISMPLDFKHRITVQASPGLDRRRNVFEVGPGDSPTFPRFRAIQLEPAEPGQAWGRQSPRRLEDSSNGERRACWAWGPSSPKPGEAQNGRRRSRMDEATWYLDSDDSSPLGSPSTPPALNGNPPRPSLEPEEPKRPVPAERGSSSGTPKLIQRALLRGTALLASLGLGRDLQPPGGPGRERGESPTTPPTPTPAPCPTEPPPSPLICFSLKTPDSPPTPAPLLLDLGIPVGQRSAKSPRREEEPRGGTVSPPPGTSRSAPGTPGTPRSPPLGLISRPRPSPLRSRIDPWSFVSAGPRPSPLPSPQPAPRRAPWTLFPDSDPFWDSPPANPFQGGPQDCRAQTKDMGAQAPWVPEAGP
- experiment-description: MLK3(M311LGF1) Takeda global kinase panel

mol: CN1C(=O)[C@@H](N2CCc3c(nn(Cc4ccccc4)c3Br)C2=O)COc2ccccc21
IC50 (nM): 1000

---

- assay-target: 3-phosphoinositide-dependent protein kinase 1 (Homo sapiens)
- Sequence (O15530 whole entry): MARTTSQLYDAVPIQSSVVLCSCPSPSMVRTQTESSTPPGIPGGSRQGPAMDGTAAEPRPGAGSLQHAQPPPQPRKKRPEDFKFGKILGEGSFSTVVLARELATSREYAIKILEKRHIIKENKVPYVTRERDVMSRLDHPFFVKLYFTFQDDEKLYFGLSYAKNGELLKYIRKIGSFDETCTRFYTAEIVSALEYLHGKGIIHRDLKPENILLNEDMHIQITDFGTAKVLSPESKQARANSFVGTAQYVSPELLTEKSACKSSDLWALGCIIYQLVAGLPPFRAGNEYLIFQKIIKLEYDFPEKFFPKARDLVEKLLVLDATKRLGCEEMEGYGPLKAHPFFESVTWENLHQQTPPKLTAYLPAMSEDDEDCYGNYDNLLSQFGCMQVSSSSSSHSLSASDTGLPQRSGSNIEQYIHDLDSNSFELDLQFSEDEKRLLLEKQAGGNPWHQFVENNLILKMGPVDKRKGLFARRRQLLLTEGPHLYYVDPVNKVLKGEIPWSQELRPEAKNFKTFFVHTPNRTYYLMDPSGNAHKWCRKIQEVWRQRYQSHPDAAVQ
pIC50: −log10 of the molar value.

mol: CN1C(=O)[C@@H](N2CCc3c(nn(Cc4ccccc4)c3Br)C2=O)COc2ccccc21
pIC50: 6.00
